# Tested on: mice
# TEST_DETAILS: Hypnotic activity: loss of righting reflex after intravenous injection in mice
# Assay type: in vivo
# REPORTED_CONDITIONS: intravenous injection over 10 seconds, dose causing loss of righting reflex for minimum 30 seconds in 50% of treated mice
Decision: HD50 (hypnotic dose50) beneath 20 µmol/kg gives TRUE; HD50 (hypnotic dose50) meeting or exceeding 20 µmol/kg gives FALSE.

Examples from the recorded data:
Item COCCCN(CCCOC)C(COC)C(=O)Oc1c(OC)cccc1OC (stereo not drawn) : HD50 (hypnotic dose50) beneath 20 µmol/kg, strictly? FALSE

Item CCOCCN(CCOCC)C(COC)C(=O)Oc1c(OC)cccc1OC (stereo not drawn) : HD50 (hypnotic dose50) beneath 20 µmol/kg, strictly? FALSE

Item COCCC(C(=O)Oc1c(OC)cccc1OC)N1CCCOCC1 (stereo not drawn) [Example 51b] : HD50 (hypnotic dose50) beneath 20 µmol/kg, strictly? FALSE

Others:
Item COCCN(CCOC)C(COC)C(=O)Oc1c(OC)cc(C)cc1OC (stereo not drawn) [Example 51c] : HD50 (hypnotic dose50) beneath 20 µmol/kg, strictly? FALSE

Item COCCC(C(=O)Oc1c(OC)cccc1OC)N(CCOC)CCOC (stereo not drawn) [Example 10h] : HD50 (hypnotic dose50) beneath 20 µmol/kg, strictly? FALSE

Item COc1cccc(OC)c1OC(=O)C(CN1CC=CCC1)N1CCSCC1 (stereo not drawn) [Example 19k] : HD50 (hypnotic dose50) beneath 20 µmol/kg, strictly? TRUE
